biological target: Human Kv1.5 channels (Homo sapiens); assay: Activity on the Kv1.5 channel, two-microelectrode voltage clamp on xenopus oocytes; details: human Kv1.5 expressed in Xenopus laevis oocytes; percent inhibition of control current fitted with Hill equation; room temperature; read-out: Kv1.5 IC-50
property name: pIC50
The value called pIC50 is obtained by taking minus log10 of the concentration in mol/L.

Please review the entries below; each comes with its answer.
O=c1ccccn1[C@H](c1ccc(F)cc1)[C@H](OCC1CC1)c1ccc(F)cc1 (racemic) | 6.48
COc1ccc(CO[C@H](c2ccc(OC)cc2)[C@@H](c2ccc(F)cc2)n2ccccc2=O)cc1 (racemic) | 5.35
O=c1ccc(F)cn1C(c1ccccc1)C(OCC1CC1)c1ccccc1 (racemic) | 6.11
N#Cc1ccc(C(OCC2CC2)C(c2ccc(F)cc2)n2ccccc2=O)cc1 (racemic) | 5.69
O=c1ccccn1C(c1ccccc1)C(OCC1CC1)c1ccc(Cl)cc1 (racemic) | 6.74
O=c1cccnn1C(c1ccccc1)C(OCC1CC1)c1ccc(Cl)cc1 (racemic) | 5.98

In: Reported pIC50 for O=c1ccc(F)cn1C(c1ccc(F)cc1)C(OCC1CC1)c1ccc(F)cc1 (racemic) : what is it?
Out: 5.34

---

target: Human Kv1.5 channels (Homo sapiens, UniProt P22460); test: Activity on the Kv1.5 channel, two-microelectrode voltage clamp on xenopus oocytes; conditions: human Kv1.5 expressed in Xenopus laevis oocytes; percent inhibition of control current fitted with Hill equation; room temperature; read-out: Kv1.5 IC-50
Sequence (P22460 whole entry): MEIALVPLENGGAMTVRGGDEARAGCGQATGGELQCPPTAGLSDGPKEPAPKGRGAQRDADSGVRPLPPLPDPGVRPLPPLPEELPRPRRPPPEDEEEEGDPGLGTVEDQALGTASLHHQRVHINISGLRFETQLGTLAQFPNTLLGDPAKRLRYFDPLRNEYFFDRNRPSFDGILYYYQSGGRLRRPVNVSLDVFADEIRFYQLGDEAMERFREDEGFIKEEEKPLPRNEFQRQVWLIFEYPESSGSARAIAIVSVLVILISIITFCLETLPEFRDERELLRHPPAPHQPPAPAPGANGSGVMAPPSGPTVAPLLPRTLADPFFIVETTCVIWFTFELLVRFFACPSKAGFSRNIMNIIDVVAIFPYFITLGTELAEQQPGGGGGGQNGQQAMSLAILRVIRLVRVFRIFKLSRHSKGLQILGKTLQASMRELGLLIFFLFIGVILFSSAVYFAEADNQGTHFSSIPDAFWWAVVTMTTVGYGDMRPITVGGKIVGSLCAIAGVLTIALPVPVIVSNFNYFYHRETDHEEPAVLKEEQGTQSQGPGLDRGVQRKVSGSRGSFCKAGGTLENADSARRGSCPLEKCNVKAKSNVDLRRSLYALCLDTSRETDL
Here, each record is paired with measured IC50 data.
Report the value in µM with no unit label.

A selection of reference data follows.
O=c1ccccn1C(c1ccc(F)cc1)C(OCC1CC1)c1ccc(F)cc1 (racemic) [Example 14] | 1.4
COc1ccc([C@@H](OCC2CC2)[C@@H](c2ccc(F)cc2)n2ccccc2=O)cc1 (racemic) [Example 17] | 1.83
O=c1ccc(F)cn1C(c1ccc(F)cc1)C(OC1CC1)c1ccc(F)cc1 (racemic) [Example 6] | 6.48
O=c1ccc(F)cn1[C@H](c1ccccc1)[C@H](OCC1CC1)c1ccccc1 (racemic) [Example 12] | 1.47

In: # query: IC50 of entry COc1ccc([C@@H](OCC2CC2)[C@H](c2ccc(F)cc2)n2ccccc2=O)cc1 (racemic) [Example 2]
Out: 1.3

In: What does the record list as IC50 for O=c1ccccn1[C@@H](c1ccc(F)cc1)[C@H](OCC1CC1)c1ccc(F)cc1 (racemic) [Example 9] ?
Out: 0.41

In: Look up IC50 for this molecule: COc1ccc(CO[C@H](c2ccc(OC)cc2)[C@H](c2ccc(F)cc2)n2ccccc2=O)cc1 (racemic) [Example 18]
Out: 2.69

---

Reported IC50 values for a set of molecules
target: Human Kv1.5 channels (Homo sapiens, UniProt P22460); experiment: Activity on the Kv1.5 channel, two-microelectrode voltage clamp on xenopus oocytes; details: human Kv1.5 expressed in Xenopus laevis oocytes; percent inhibition of control current fitted with Hill equation; room temperature; read-out: Kv1.5 IC-50
State just the number; it will be interpreted in nM.

Sample records with IC50:
O=c1ccccn1C(c1ccc(F)cc1)C(OCC1CC1)c1ccc(Br)cc1 (racemic) | 870
O=c1ccccn1[C@H](c1ccccc1)[C@H](OCC1CC1)c1ccccc1 (racemic) | 380

Shift focus to the following entry.
In: Notebook: pull reported IC50 for Human Kv1.5 channels (Homo sapiens, UniProt P22460), entry N#Cc1ccc(COC(c2ccc(Cl)cc2)C(c2ccccc2)n2ccccc2=O)cc1 (racemic)
Out: 2510
